Target: Human recombinant integrin α5β1 (Homo sapiens, UniProt P05556+P08648)
Construct: purchased R&D Systems
Sequence (P08648 42-995 limits assumed, one chain of several): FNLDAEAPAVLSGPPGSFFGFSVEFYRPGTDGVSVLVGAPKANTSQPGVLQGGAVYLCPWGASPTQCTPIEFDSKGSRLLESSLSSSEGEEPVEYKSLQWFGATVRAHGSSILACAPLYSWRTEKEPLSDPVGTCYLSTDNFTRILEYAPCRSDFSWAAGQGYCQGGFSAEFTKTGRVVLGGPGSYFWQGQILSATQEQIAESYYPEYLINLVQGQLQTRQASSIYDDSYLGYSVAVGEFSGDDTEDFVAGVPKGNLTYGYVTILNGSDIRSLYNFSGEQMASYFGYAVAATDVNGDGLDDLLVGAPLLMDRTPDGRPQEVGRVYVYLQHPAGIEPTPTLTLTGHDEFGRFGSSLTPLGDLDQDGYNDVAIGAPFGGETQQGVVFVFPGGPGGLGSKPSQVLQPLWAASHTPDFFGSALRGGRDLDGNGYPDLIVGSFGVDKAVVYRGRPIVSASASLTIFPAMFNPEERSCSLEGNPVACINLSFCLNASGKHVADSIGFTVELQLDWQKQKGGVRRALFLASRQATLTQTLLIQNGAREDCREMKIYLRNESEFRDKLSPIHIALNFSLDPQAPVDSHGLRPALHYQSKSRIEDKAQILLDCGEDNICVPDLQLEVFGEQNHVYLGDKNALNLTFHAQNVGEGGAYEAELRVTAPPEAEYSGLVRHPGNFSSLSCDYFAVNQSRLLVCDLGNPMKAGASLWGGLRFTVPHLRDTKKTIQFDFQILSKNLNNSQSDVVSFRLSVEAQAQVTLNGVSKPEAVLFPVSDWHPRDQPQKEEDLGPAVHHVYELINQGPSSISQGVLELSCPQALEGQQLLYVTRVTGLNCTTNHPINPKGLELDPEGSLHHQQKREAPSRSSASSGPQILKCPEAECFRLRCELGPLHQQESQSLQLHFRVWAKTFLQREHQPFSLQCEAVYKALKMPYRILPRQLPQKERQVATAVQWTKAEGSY
Experiment: Solid phase receptor assay, α5β1 (fibronectin)
Assay type: binding
Details: α5β1, first of two experiments
assay_endpoint: IC50 (nM)
Give the quantity in nM, number only.

IN: Hello, please tell me recorded IC50 for this one: COc1ccc([C@H](CC(=O)O)N2CCN(CCCc3ccc4c(n3)NCCC4)C2=O)cn1 [Compound A]
OUT: 4.9

---

Molecular target: Human recombinant integrin αvβ3 (Homo sapiens, UniProt P05106+P06756)
Construct: purchased R&D Systems
Sequence (P05106 27-718 limits assumed, one chain of several): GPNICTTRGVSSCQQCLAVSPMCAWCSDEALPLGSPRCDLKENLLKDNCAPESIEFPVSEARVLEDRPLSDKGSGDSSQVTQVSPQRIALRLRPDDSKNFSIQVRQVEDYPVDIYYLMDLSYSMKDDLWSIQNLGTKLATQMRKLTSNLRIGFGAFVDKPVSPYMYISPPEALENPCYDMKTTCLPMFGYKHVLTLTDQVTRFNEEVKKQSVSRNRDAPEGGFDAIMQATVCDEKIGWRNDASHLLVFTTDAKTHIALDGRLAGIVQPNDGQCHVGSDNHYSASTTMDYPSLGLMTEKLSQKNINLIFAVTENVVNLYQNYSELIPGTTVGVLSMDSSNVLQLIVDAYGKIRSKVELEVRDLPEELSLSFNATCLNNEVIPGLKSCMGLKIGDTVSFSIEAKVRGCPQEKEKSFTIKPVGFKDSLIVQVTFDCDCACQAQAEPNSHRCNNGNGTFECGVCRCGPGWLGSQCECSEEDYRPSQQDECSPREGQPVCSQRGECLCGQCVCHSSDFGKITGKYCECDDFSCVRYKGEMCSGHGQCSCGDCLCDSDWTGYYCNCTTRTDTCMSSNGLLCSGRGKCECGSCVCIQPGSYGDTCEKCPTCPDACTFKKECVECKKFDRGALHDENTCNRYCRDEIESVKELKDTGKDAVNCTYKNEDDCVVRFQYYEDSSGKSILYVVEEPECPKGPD
Test: Solid phase receptor assay, αvβ3 (vitronectin)
Format: binding
Conditions: αvβ3, first of two experiments
assay_endpoint: pIC50
Reminder that pIC50 means the negative base-10 logarithm of the concentration expressed in mol/L.

IN: Hello, please tell me recorded pIC50 for this one: `COc1ccc([C@H](CC(=O)O)N2CCN(CCCc3ccc4c(n3)NCCC4)C2=O)cn1`
OUT: 8.28

---

Biological target: Human recombinant integrin αvβ1 (Homo sapiens, UniProt P05556+P06756)
Construct: purchased R&D Systems
Sequence (P06756 31-992 limits assumed): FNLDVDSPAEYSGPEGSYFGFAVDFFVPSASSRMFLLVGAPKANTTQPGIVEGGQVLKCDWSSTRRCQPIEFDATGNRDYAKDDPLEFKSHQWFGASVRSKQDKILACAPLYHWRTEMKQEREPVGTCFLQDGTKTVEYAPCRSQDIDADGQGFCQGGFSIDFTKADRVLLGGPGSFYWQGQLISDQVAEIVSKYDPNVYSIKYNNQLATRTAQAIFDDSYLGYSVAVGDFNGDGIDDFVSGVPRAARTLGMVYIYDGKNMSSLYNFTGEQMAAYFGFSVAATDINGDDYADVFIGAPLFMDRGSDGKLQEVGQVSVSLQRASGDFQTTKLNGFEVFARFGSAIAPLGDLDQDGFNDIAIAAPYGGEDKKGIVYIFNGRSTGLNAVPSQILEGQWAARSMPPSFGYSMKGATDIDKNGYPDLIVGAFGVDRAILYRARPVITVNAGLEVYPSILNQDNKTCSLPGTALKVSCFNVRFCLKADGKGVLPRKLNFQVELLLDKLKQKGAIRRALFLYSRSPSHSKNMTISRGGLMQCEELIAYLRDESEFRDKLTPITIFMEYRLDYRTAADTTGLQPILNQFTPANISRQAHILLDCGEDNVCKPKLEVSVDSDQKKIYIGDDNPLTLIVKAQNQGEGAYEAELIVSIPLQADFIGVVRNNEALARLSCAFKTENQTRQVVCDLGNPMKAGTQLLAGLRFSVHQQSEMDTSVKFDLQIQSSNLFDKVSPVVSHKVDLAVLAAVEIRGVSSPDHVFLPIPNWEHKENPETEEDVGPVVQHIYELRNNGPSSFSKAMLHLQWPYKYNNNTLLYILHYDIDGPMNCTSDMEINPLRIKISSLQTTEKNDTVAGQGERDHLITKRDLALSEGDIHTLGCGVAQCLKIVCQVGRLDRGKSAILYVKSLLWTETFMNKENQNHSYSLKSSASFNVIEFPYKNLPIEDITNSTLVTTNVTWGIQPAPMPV
Sequence (P05556 21-728 limits assumed): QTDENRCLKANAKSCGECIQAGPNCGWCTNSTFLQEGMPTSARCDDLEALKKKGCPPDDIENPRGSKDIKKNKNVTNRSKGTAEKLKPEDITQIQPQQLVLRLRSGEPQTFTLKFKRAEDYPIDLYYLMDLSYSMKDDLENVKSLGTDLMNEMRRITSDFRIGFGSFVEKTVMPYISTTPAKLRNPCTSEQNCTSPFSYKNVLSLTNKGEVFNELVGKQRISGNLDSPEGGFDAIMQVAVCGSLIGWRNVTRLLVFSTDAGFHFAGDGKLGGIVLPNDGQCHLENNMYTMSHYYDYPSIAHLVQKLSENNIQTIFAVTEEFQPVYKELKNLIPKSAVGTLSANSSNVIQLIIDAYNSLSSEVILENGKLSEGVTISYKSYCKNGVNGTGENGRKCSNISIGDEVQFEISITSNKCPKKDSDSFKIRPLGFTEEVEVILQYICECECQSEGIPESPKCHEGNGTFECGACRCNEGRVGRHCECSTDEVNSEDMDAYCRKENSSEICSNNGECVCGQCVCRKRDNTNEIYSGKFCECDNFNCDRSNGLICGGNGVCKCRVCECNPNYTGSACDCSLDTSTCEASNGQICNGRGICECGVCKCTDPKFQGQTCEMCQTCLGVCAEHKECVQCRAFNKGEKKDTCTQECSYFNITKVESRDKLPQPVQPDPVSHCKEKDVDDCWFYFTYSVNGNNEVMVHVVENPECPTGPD
Experiment: Solid phase receptor assay, αvβ1 (fibronectin)
Format: binding
Settings: αvβ1, second of two experiments
assay_endpoint: IC50
Report field: quantity (unit follows the number).

IN: Hello, please tell me recorded IC50 for this one: COc1ccc([C@H](CC(=O)O)N2CCN(CCCc3ccc4c(n3)NCCC4)C2=O)cn1 [Compound A]
OUT: 0.9 nM
